Assay: Stability in liver S9-fractions, dog
Format: in vitro ADME
Settings: read-out: Stability in liver S9-fractions (t ½) Dog (converted)
readoutType: half-life (h)
Number only, in h; omit the unit.

Read the entry `COc1ccc(N2CCN(C(=O)c3cc4cc(C(N)=O)ccc4[nH]3)CC2)cc1` and write its reported half-life.
4.5

Read the entry `COc1ccc(N2CCN(C(=O)c3nc4cc(F)ccc4[nH]3)CC2)cc1` and write its reported half-life.
4

Read the entry `COc1ccc(N2CCN(C(=O)c3cc4ccccc4[nH]3)CC2)cc1` and write its reported half-life.
2.5

Read the entry `COc1ccc(N2CCN(C(=O)c3cc4cc(C(C)=O)ccc4[nH]3)CC2)cc1` and write its reported half-life.
2

====

Target: Nox5 (Homo sapiens (Human), UniProt Q96PH1)
Sequence (Q96PH1 whole entry, species assumed): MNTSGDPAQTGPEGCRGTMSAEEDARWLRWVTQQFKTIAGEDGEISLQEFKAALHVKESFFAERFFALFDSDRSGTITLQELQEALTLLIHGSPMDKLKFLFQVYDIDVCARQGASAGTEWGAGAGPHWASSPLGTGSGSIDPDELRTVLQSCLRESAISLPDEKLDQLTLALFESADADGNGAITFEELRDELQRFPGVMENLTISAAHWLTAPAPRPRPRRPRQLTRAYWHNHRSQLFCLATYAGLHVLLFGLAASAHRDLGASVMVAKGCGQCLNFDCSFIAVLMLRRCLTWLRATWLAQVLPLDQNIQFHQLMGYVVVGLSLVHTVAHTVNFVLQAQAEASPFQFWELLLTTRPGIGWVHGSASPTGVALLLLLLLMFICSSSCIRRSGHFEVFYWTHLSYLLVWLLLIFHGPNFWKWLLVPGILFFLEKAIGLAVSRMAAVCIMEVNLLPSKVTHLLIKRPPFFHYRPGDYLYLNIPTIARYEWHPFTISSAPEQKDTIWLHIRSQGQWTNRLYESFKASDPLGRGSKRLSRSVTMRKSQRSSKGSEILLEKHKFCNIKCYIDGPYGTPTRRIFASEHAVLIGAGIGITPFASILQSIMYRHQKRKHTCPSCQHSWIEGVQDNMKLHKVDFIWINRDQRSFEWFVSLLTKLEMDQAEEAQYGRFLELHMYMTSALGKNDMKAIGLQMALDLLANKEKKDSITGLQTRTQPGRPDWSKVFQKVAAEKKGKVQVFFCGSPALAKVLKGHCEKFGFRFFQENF
Assay: Nox5 inhibition
Assay type: biochemical
Settings: Table 3
IC50 overview
Number only, in nM; omit the unit.

1. CCN1CCN(Cc2c(C(=O)N3CCN(c4ccc(OC)cc4)CC3)[nH]c3ccc(F)cc23)CC1 [TG7-33]
800

From here, focus on the item given below.
Read the entry CCN(CC)Cc1c(C(=O)N2CCN(c3ccc(OC)cc3)CC2)[nH]c2ccc(F)cc12.Cl [TG7-34] and write its reported IC50.
600

====

Test: Stability in liver S9-fractions, mouse
Assay type: in vitro ADME
Conditions: read-out: Stability in liver S9-fractions (t ½) Mouse (converted)
half-life overview
Number only, in h; omit the unit.

// below: answered compounds
1) COc1ccc(N2CCN(C(=O)c3nc4cc(F)ccc4[nH]3)CC2)cc1
5
2) COc1ccc(N2CCN(C(=O)c3cc4cc(C(C)=O)ccc4[nH]3)CC2)cc1
3
3) COc1ccc(N2CCN(C(=O)c3cc4ccccc4[nH]3)CC2)cc1
5

From here, focus on the item given below.
Read the entry `COc1ccc(N2CCN(C(=O)c3cc4cc(C(N)=O)ccc4[nH]3)CC2)cc1` and write its reported half-life.
6

====

// Nox1 (Homo sapiens (Human), UniProt Q9Y5S8) pIC50 records
To interpret pIC50, take it as minus log10 of a concentration measured in moles per litre.

// below: answered compounds
1) COc1ccc(N2CCN(C(=O)c3[nH]c4ccc(F)cc4c3CNC3CCN(C)CC3)CC2)cc1
6.30
2) CCN(CC)CCNCc1c(C(=O)N2CCN(c3ccc(OC)cc3)CC2)[nH]c2ccc(F)cc12
6.05
3) CCN(CC)Cc1c(C(=O)N2CCN(c3ccc(OC)cc3)CC2)[nH]c2ccc(F)cc12.Cl
6.22

Read the entry `COc1ccc(N2CCN(C(=O)c3[nH]c4ccc(F)cc4c3CN3CCOCC3)CC2)cc1.Cl` and write its reported pIC50.
6.22

====

Assay: Solubility
Type: physicochemical
readoutType: solubility (µM)
Number only, in µM; omit the unit.

1. COc1ccc(N2CCN(C(=O)c3[nH]c4ccc(F)cc4c3CN3CCOCC3)CC2)cc1.Cl
276
2. CCN(CC)Cc1c(C(=O)N2CCN(c3ccc(OC)cc3)CC2)[nH]c2ccc(F)cc12.Cl
270
3. CCN1CCN(Cc2c(C(=O)N3CCN(c4ccc(OC)cc4)CC3)[nH]c3ccc(F)cc23)CC1
250
4. COc1ccc(N2CCN(C(=O)c3cc4cc(C(N)=O)ccc4[nH]3)CC2)cc1
190

Read the entry `CCN(CC)CCNCc1c(C(=O)N2CCN(c3ccc(OC)cc3)CC2)[nH]c2ccc(F)cc12` and write its reported solubility.
150

Read the entry `COc1ccc(N2CCN(C(=O)c3[nH]c4ccc(F)cc4c3CNC3CCN(C)CC3)CC2)cc1` and write its reported solubility.
250

Entry source: patent US9428478B2
